# targetOrTestSystem: T1, DegS F234A (E. coli, UniProt P0AEE3 27-355, F234A)
# T1 sequence (looked up): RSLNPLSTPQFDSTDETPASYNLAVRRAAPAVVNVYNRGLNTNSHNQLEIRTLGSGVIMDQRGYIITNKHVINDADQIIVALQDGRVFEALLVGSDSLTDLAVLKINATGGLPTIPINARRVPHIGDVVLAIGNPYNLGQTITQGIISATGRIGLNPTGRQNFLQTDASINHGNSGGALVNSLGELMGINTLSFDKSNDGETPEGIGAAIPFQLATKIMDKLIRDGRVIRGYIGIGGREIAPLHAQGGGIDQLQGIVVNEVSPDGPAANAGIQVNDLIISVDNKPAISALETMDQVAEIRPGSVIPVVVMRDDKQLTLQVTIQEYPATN
# experimentalProtocol: fluorescence polarisation
Where no end group is shown, it is not given here. fluorescein = fluorescein, a fluorescent label on the peptide N-terminus
recordedMetric: pKd
Keep in mind that pKd stands for -log10 of concentration in molar terms.

Consider fluorescein-DNRDGNVYYF [fluorescent OMP peptide fluorescein-DNRDGNVYYF] . Its measured pKd is 5.23
